Experiment: Antiproliferative activity against human MM1.S cells assessed as cell viability at 50 uM incubated for 72 hrs by CellTiter-Glo assay relative to control
Type: toxicity, cell-based
Conditions: read-out: Activity
Parameter: viability at 72 h, 50 µM. Scope: all listed entries.
measured_property: viability at 72 h, 50 µM

>  <compound>
CCNNC(=O)c1ccc(CNC(=O)c2ccc(OCc3cn(CCCCCC(=O)N[C@H](C(=O)N4C[C@H](O)C[C@H]4C(=O)NCc4ccc(-c5scnc5C)cc4)C(C)(C)C)nn3)cc2)cc1

>  <measured>
> 50%

$$$$
>  <compound>
CCNNC(=O)c1ccc(CNC(=O)c2ccc(OCc3cn(CCOCCC(=O)N[C@H](C(=O)N4C[C@H](O)C[C@H]4C(=O)NCc4ccc(-c5scnc5C)cc4)C(C)(C)C)nn3)cc2)cc1

>  <measured>
> 50%

$$$$
>  <compound>
CCNNC(=O)c1ccc(CNC(=O)c2ccc(NC(=O)COCCOCC(=O)N[C@H](C(=O)N3C[C@H](O)C[C@H]3C(=O)NCc3ccc(-c4scnc4C)cc3)C(C)(C)C)cc2)cc1

>  <measured>
> 50%

$$$$
>  <compound>
O=C(CCCCCCNC(=O)c1ccc(NC(=O)CCCCCCCNC(=O)COc2cccc3c2C(=O)N(C2CCC(=O)NC2=O)C3=O)cc1)NO (stereo not drawn)

>  <measured>
> 50%

$$$$
>  <compound>
CCNNC(=O)c1ccc(CNC(=O)c2ccc(NC(=O)COCCOCCNc3cc4c(cc3F)C(=O)N(C3CCC(=O)NC3=O)C4=O)cc2)cc1 (stereo not drawn)

>  <measured>
> 50%

$$$$
>  <compound>
CCNNC(=O)c1ccc(CNC(=O)c2ccc(OCc3cn(CCCCCCNc4cc5c(cc4F)C(=O)N(C4CCC(=O)N(C)C4=O)C5=O)nn3)cc2)cc1 (stereo not drawn)

>  <measured>
> 50%

$$$$
>  <compound>
CCNNC(=O)c1ccc(CNC(=O)c2ccc(NC(=O)CCCCCCC(=O)N[C@H](C(=O)N3C[C@H](O)C[C@H]3C(=O)NCc3ccc(-c4scnc4C)cc3)C(C)(C)C)cc2)cc1

>  <measured>
> 50%

$$$$
>  <compound>
CCNNC(=O)c1ccc(CNC(=O)c2ccc(OCc3cn(CCCCCCNc4cc5c(cc4F)C(=O)N(C4CCC(=O)NC4=O)C5=O)nn3)cc2)cc1 (stereo not drawn)

>  <measured>
> 50%

$$$$

###

Parameter: pIC50. Scope: all listed entries.
Target: Histone deacetylase 3/Nuclear receptor corepressor 2 (HDAC3/NCoR2) (Homo sapiens, UniProt O15379)
Sequence (O15379 whole entry): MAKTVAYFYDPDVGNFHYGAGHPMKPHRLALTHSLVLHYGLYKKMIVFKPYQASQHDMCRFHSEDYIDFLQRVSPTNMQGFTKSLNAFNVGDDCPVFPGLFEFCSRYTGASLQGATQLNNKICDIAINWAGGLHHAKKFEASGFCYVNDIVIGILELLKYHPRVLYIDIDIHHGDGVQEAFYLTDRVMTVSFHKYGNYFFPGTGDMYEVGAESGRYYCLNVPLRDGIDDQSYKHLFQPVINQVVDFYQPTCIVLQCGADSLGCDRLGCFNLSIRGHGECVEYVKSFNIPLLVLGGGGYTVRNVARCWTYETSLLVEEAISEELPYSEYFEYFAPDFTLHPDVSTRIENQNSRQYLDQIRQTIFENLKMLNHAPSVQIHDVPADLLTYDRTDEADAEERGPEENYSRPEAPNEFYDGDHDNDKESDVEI
Sequence (Q9Y618 whole entry, further chain): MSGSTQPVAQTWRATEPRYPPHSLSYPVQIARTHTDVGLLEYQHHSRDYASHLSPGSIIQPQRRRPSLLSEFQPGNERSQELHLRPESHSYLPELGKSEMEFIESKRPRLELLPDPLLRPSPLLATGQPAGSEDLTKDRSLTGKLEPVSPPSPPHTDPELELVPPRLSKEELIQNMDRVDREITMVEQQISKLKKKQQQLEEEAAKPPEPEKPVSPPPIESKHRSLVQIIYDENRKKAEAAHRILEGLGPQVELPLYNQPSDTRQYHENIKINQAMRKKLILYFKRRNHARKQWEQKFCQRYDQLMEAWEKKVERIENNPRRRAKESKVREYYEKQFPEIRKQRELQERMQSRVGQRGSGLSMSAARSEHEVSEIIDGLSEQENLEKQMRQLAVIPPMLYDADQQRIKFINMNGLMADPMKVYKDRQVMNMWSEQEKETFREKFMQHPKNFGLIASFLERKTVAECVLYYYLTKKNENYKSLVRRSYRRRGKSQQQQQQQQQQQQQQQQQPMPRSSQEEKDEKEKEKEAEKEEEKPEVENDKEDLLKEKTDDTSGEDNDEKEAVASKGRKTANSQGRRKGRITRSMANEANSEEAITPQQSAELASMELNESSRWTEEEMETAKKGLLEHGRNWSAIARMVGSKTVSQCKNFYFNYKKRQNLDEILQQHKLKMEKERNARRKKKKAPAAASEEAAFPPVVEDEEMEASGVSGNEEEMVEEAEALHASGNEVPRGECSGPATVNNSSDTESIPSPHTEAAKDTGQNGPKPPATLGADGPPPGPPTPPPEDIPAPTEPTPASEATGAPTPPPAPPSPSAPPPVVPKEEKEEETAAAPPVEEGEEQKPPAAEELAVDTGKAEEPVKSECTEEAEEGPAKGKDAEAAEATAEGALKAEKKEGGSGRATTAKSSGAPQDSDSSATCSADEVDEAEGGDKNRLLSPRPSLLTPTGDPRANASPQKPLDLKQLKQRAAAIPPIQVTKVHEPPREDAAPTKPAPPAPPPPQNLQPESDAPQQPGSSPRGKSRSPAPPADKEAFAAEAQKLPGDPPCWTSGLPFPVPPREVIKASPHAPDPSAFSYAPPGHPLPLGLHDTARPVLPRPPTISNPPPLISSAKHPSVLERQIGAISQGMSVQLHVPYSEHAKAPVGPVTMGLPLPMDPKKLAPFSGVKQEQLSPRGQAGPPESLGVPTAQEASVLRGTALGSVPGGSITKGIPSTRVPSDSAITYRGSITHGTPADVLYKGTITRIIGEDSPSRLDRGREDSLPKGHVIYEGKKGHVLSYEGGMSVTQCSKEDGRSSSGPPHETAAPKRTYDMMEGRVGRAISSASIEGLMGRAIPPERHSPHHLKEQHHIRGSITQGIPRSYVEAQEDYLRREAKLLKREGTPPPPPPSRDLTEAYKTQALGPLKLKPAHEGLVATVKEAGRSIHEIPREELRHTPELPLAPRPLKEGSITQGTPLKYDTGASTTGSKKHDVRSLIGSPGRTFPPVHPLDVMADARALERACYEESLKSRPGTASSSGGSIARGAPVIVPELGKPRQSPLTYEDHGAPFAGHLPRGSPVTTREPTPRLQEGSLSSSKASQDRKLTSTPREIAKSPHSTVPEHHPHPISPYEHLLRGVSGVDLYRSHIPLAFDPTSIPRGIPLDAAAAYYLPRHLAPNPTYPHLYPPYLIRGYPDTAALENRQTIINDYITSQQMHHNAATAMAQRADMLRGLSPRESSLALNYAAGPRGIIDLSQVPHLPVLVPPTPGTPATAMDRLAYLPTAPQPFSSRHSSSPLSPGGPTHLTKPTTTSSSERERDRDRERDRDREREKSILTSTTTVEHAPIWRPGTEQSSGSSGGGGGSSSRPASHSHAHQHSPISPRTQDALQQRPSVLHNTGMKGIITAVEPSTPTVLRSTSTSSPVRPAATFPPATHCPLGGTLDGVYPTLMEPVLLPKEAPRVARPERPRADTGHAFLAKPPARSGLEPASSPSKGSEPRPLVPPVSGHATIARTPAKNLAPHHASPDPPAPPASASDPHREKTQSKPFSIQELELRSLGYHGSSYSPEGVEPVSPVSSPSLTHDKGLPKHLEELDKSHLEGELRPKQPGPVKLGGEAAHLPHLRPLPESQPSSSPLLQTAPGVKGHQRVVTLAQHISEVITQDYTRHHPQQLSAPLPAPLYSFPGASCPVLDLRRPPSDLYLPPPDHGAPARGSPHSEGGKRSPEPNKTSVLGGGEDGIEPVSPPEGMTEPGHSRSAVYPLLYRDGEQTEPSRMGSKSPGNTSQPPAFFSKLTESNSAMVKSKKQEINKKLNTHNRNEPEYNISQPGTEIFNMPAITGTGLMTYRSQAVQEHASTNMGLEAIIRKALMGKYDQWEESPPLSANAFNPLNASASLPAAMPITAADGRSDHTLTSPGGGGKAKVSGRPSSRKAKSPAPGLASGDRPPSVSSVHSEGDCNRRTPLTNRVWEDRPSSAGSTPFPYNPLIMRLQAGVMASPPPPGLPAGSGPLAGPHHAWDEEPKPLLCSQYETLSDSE
Experiment: Inhibition of C-terminal His tagged human recombinant HDAC3 (1 to 428 end residues)/N-terminal GST-tagged human NcoR2 expressed in Sf9 insect cells using Z-Lys(Ac)-AMC as substrate preincubated for 60 mins followed by substrate addition and measured after 90 mins by fluorescence based microplate reader analysis
pIC50: −log10 of the molar value.

>  <compound>
CCNNC(=O)c1ccc(CNC(=O)c2ccc(NC(=O)COCCOCC(=O)N[C@H](C(=O)N3C[C@H](O)C[C@H]3C(=O)NCc3ccc(-c4scnc4C)cc3)C(C)(C)C)cc2)cc1

>  <pIC50>
6.14

$$$$
>  <compound>
CCNNC(=O)c1ccc(CNC(=O)c2ccc(NC(=O)CCCCCCCNc3cc4c(cc3F)C(=O)N(C3CCC(=O)NC3=O)C4=O)cc2)cc1 (stereo not given)

>  <pIC50>
6.62

$$$$
>  <compound>
CCNNC(=O)c1ccc(CNC(=O)c2ccc(OCc3cn(CCOCCC(=O)N[C@H](C(=O)N4C[C@H](O)C[C@H]4C(=O)NCc4ccc(-c5scnc5C)cc4)C(C)(C)C)nn3)cc2)cc1

>  <pIC50>
6.61

$$$$
>  <compound>
CCNNC(=O)c1ccc(CNC(=O)c2ccc(OCc3cn(CCCCCC(=O)N[C@H](C(=O)N4C[C@H](O)C[C@H]4C(=O)NCc4ccc(-c5scnc5C)cc4)C(C)(C)C)nn3)cc2)cc1

>  <pIC50>
6.38

$$$$
>  <compound>
CCNNC(=O)c1ccc(CNC(=O)c2ccc(NC(=O)CCCCCCC(=O)N[C@H](C(=O)N3C[C@H](O)C[C@H]3C(=O)NCc3ccc(-c4scnc4C)cc3)C(C)(C)C)cc2)cc1

>  <pIC50>
6.90

$$$$
>  <compound>
CCNNC(=O)c1ccc(CNC(=O)c2ccc(OCc3cn(CCOCCNc4cc5c(cc4F)C(=O)N(C4CCC(=O)NC4=O)C5=O)nn3)cc2)cc1 (stereo not given)

>  <pIC50>
6.48

$$$$
>  <compound>
O=C(CCCCCCNC(=O)c1ccc(NC(=O)CCCCCCCNC(=O)COc2cccc3c2C(=O)N(C2CCC(=O)NC2=O)C3=O)cc1)NO (stereo not given)

>  <pIC50>
6.79

$$$$
>  <compound>
CCNNC(=O)c1ccc(CNC(=O)c2ccc(NC(=O)COCCOCCNc3cc4c(cc3F)C(=O)N(C3CCC(=O)NC3=O)C4=O)cc2)cc1 (stereo not given)

>  <pIC50>
6.42

$$$$
>  <compound>
CCNNC(=O)c1ccc(CNC(=O)c2ccc(OCc3cn(CCCCCCNc4cc5c(cc4F)C(=O)N(C4CCC(=O)N(C)C4=O)C5=O)nn3)cc2)cc1 (stereo not given)

>  <pIC50>
6.27

$$$$
>  <compound>
CCNNC(=O)c1ccc(CNC(=O)c2ccc(OCc3cn(CCCCCCNc4cc5c(cc4F)C(=O)N(C4CCC(=O)NC4=O)C5=O)nn3)cc2)cc1 (stereo not given)

>  <pIC50>
6.21

$$$$
